# Test system: Escherichia coli
# EXPERIMENT NOTES: in vitro antibacterial evaluation, MIC by broth dilution
# Type: cell-based
# CONDITION DESCRIPTION: 18 hours at 35° C.
Numbered stars: 1 amine (or outer) side, 2 acyl side, 3 side chain; on linkers, the order of the positions; unused ones are H or OH. Square brackets hold non-standard residues; d marks the D form. Peptide text beside a SMILES is read from it. * marks the point of attachment. ξ: configuration not given here. X1 = N=C1NCC(C(O)C(N[*:1])C(=O)[*:2])N1C1OC(CO)C(O)C(O)C1O; ξEnduracididine(βξ-OH,4'ξ) = N=C1NCC(C(O)C(N)C(=O)O)N1; X2 = OCC1OC(OC2C(CO)OC(*)C(O)C2O)C(O)C(O)C1O; Diphenylacetyl = O=C(C(c1ccccc1)c1ccccc1)*; ξPhe(βξ-Me) = CC(c1ccccc1)C(N)C(=O)O
// reported MIC Escherichia coli (ATCC 25922) for each item listed

COMPOUND	MIC Escherichia coli (ATCC 25922)
CC(C1CCCCC1)C1NC(=O)CNC(=O)C(CO)NC(=O)C(C(O)C2CNC(=N)N2C2OC(CO)C(O)C(O)C2O)NC(=O)C(C(O)C2CNC(=N)N2)NC(=O)C(C[C@H]2CC[C@H](O)CC2)NC1=O (stereo partly shown) [Example 54a]	>128 µg/mL
CC(c1ccccc1)C1NC(=O)CNC(=O)C(COC(=O)C(c2ccccc2)c2ccccc2)NC(=O)C(C(O)C2CNC(=N)N2C2OC(CO)C(O)C(O)C2O)NC(=O)C(C(O)C2CNC(=N)N2)NC(=O)C(Cc2ccc(OC3OC(CO)C(OC4OC(CO)C(O)C(O)C4O)C(O)C3O)cc2)NC1=O (stereo not drawn) [Example 96a] (cyclo(G[ξPhe(βξ-Me)]Y(X2)[ξEnduracididine(βξ-OH,4'ξ)][X1]S(Diphenylacetyl)); configuration not given here)	>128 µg/mL
CC(c1ccccc1)C1NC(=O)CNC(=O)C(CO)NC(=O)C(C(O)C2CNC(=N)N2C2OC(CO)C(O)C(O)C2O)NC(=O)C(C(O)C2CNC(=N)N2)NC(=O)C(Cc2ccc(OC3OC(CO)C(OC4OC5COC6(CC7CCC6(C)C7(C)C)OC5C(O)C4O)C(O)C3O)cc2)NC1=O (stereo not shown) [Example 214]	64 µg/mL
CC(c1ccccc1)C1NC(=O)CNC(=O)C(CO)NC(=O)C(CC2CN(Cc3ccccc3)C(=NCc3ccccc3)N2C2OC(CO)C(O)C(O)C2O)NC(=O)C(CC2CN(Cc3ccccc3)C(=NCc3ccccc3)N2Cc2ccccc2)NC(=O)C(Cc2ccc(OC3OC(CO)C(OC4OC(CO)C(O)C(O)C4O)C(O)C3O)cc2)NC1=O (stereo not shown)	>128 µg/mL
CC(c1ccccc1)C1NC(=O)CNC(=O)C(CO)NC(=O)C(C(O)C2CNC(=N)N2C2OC(CO)C(O)C(O)C2O)NC(=O)C(C(O)C2CNC(=N)N2)NC(=O)C(Cc2ccc(OC3OC(CO)C(OC4OC5COC6(CCCCCCCCCCCC6)OC5C(O)C4O)C(O)C3O)cc2)NC1=O (stereo not shown)	>64 µg/mL
CN=C1N(C)CC(C(O)C2NC(=O)C(Cc3ccc(OC4OC(CO)C(OC5OC6COC7(OC6C(O)C5O)C5CC6CC(C5)CC7C6)C(O)C4O)cc3)NC(=O)C(C(C)c3ccccc3)NC(=O)CNC(=O)C(CO)NC(=O)C(C(O)C3CN(C)C(=NC)N3C3OC(CO)C(O)C(O)C3O)NC2=O)N1C (stereo not shown)	>128 µg/mL
CC(c1ccccc1)C1NC(=O)CNC(=O)C(CO)NC(=O)C(C(O)C2CNC(=N)N2C2OC(CO)C(O)C(O)C2O)NC(=O)C(C(O)C2CNC(=N)N2)NC(=O)C(Cc2ccc(OC3OC(CO)C(OC4OC5COC6(CCCCC6C)OC5C(O)C4O)C(O)C3O)cc2)NC1=O (stereo not shown)	128 µg/mL

----------
# Tested on: Enterococcus sp.
# EXPERIMENT NOTES: in vitro antibacterial evaluation, MIC by broth dilution
# Type: cell-based
# CONDITION DESCRIPTION: broth dilution, 18 hours at 35° C.; strain GC 2691
Numbered stars: 1 amine (or outer) side, 2 acyl side, 3 side chain; on linkers, the order of the positions; unused ones are H or OH. Square brackets hold non-standard residues; d marks the D form. Peptide text beside a SMILES is read from it. ξ: configuration not given here. X1 = N=C1NCC(C(O)C(N[*:1])C(=O)[*:2])N1C1OC(CO)C(O)C(O)C1O; ξEnduracididine(βξ-OH,4'ξ) = N=C1NCC(C(O)C(N)C(=O)O)N1
EXPERIMENTAL READOUT: MIC Enterococcus faecalis (GC 2691)

COMPOUND	VALUE OBSERVED
CC(c1ccccc1)C1NC(=O)CNC(=O)C(CO)NC(=O)C(C(O)C2CNC(=N)N2C2OC(CO)C(O)C(O)C2O)NC(=O)C(C(O)C2CNC(=N)N2)NC(=O)C(Cc2ccc(OC3OC(CO)C(OC4OC5COC(CC6CCCCC6)OC5C(O)C4O)C(O)C3O)cc2)NC1=O (stereo not shown) [Example 122]	2 µg/mL
Cc1cccc(C2OCC3OC(OC4C(CO)OC(Oc5ccc(CC6NC(=O)C(C(C)c7ccccc7)NC(=O)CNC(=O)C(CO)NC(=O)C(C(O)C7CNC(=N)N7C7OC(CO)C(O)C(O)C7O)NC(=O)C(C(O)C7CNC(=N)N7)NC6=O)cc5)C(O)C4O)C(O)C(O)C3O2)c1 (stereo not shown) [Example 135]	2 µg/mL
CC(c1ccccc1)C1NC(=O)CNC(=O)C(CO[Si](C)(C)C(C)(C)C)NC(=O)C(C(O)C2CNC(=N)N2C2OC3COC(C)(C)OC3C3OC(C)(C)OC32)NC(=O)C(C(O)C2CNC(=N)N2)NC(=O)C(Cc2ccc(O)cc2)NC1=O (stereo not shown) [Example 248]	32 µg/mL
N=C1NCC(C(O)C2NC(=O)C(Cc3ccc(O)cc3)NC(=O)C(Cc3ccccc3)NC(=O)CNC(=O)C(CO)NC(=O)C(C(O)C3CNC(=N)N3C3OC(CO)C(O)C(O)C3O)NC2=O)N1 (stereo not drawn) [Example 279a] (cyclo(GFY[ξEnduracididine(βξ-OH,4'ξ)][X1]S); configuration not given here)	>64 µg/mL

----------
# System: Enterococcus sp.
# EXPERIMENT NOTES: in vitro antibacterial evaluation, MIC by broth dilution
# Assay type: cell-based
# CONDITION DESCRIPTION: broth dilution, 18 hours at 35° C.; strain GC 6189
So basically, if MIC Enterococcus faecalis (GC 6189) comes in under 20 µg/mL it's criterion met, and if it's 20 µg/mL or more it's criterion not met.

COMPOUND	CLASS NAME
CC(c1ccccc1)C1NC(=O)CNC(=O)C(CO)NC(=O)C(CC2CNC(=N)N2C2OC(CO)C(O)C(O)C2O)NC(=O)C(CC2CNC(=N)N2)NC(=O)C(Cc2ccc(OC3OC(CO)C(OC4OC(COCc5ccc(OCc6ccccc6)cc5)C(O)C(O)C4O)C(O)C3O)cc2)NC1=O (stereo not shown)	criterion met
CC(c1ccccc1)C1NC(=O)CNC(=O)C(CO)NC(=O)C(C(O)C2CNC(=N)N2C2OC(CO)C(O)C(O)C2O)NC(=O)C(C(O)C2CNC(=N)N2)NC(=O)C(Cc2ccc(OC3OC(CO)C(OC4OC(CO)C(OCC=Cc5ccc(N(C)C)cc5)C(O)C4O)C(O)C3O)cc2)NC1=O (stereo not shown) [Example 243a]	criterion not met
CC(c1ccccc1)C1NC(=O)CNC(=O)C(CO)NC(=O)C(C(O)C2CNC(=N)N2C2OC(CO)C(O)C(O)C2O)NC(=O)C(C(O)C2CNC(=N)N2)NC(=O)C(Cc2ccc(OC3OC(CO)C(OC4OC5COC(CC6CCCCC6)OC5C(O)C4O)C(O)C3O)cc2)NC1=O (stereo not shown)	criterion met
CC(c1ccccc1)C1NC(=O)CNC(=O)C(CO)NC(=O)C(C(O)C2CNC(=N)N2C2OC(CO)C(O)C(O)C2O)NC(=O)C(C(O)C2CNC(=N)N2)NC(=O)C(Cc2ccc(OC3OC(CO)C(OC4OC(COCc5ccc(Oc6ccccc6)cc5)C(O)C(O)C4O)C(O)C3O)cc2)NC1=O (stereo not shown)	criterion met
CC(c1ccccc1)C1NC(=O)CNC(=O)C(CO)NC(=O)C(C(O)C2CNC(=N)N2C2OC(CO)C(O)C(O)C2O)NC(=O)C(C(O)C2CNC(=N)N2)NC(=O)C(Cc2ccc(OC3OC(CO)C(OC4OC5COC(c6cccc(O)c6)OC5C(O)C4O)C(O)C3O)cc2)NC1=O (stereo not shown)	criterion not met
COc1ccc(CC2OCC3OC(OC4C(CO)OC(Oc5ccc(CC6NC(=O)C(C(C)c7ccccc7)NC(=O)CNC(=O)C(CO)NC(=O)C(C(O)C7CNC(=N)N7C7OC(CO)C(O)C(O)C7O)NC(=O)C(C(O)C7CNC(=N)N7)NC6=O)cc5)C(O)C4O)C(O)C(O)C3O2)cc1 (stereo not shown)	criterion met
